This listing pairs compounds with measured IC50.
target: human TRPM8 (Homo sapiens, UniProt Q7Z2W7); experiment: Menthol-induced Ca2+ influx in HEK293 cells stably expressing human TRPM8; conditions: 30 microM menthol-induced Ca2+ influx, read-out: IC50 against TRPM8
Sequence (Q7Z2W7 whole entry): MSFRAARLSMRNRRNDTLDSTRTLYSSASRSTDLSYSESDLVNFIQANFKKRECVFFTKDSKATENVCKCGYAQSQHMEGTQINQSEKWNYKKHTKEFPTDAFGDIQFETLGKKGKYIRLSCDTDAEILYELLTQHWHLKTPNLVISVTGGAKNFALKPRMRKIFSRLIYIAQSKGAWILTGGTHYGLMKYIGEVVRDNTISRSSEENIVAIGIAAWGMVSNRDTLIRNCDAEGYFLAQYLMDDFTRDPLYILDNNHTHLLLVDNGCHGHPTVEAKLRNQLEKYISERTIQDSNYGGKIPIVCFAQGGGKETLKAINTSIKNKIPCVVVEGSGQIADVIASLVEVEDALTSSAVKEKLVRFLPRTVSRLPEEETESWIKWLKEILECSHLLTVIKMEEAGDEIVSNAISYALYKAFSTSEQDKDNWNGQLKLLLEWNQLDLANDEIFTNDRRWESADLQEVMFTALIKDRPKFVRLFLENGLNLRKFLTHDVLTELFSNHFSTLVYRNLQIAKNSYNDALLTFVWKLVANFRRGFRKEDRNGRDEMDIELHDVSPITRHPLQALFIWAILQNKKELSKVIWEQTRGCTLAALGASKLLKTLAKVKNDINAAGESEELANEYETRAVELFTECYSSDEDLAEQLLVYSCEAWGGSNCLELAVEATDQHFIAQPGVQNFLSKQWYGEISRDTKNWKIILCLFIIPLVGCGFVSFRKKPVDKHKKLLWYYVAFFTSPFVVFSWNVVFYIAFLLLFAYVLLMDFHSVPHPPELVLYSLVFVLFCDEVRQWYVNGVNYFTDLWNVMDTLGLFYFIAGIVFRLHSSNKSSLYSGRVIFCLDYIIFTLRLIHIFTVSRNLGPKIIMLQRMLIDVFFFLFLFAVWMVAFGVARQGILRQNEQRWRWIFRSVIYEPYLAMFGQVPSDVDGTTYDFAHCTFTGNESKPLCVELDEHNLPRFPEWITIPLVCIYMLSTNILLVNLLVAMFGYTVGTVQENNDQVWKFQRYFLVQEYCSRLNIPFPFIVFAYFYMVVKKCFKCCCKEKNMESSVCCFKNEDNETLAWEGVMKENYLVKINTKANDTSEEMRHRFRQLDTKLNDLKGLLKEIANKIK

Sample records with IC50:
Cc1nc2cccnc2n1-c1ccc(C(=O)CN2C(=O)NC3(CCCCCC3)C2=O)cc1 ... < 100 nM
Cc1ccc2nc(C)n(-c3ccc(C(=O)CN4C(=O)NC5(CCCCCC5)C4=O)cc3)c2n1 ... < 100 nM
CN(c1ccc(C(=O)CN2C(=O)NC3(CCC(F)(F)CC3)C2=O)cc1)c1ccccn1 ... < 100 nM
Cc1nccnc1-c1ccc(C(=O)CN2C(=O)NC3(CCC(F)(F)CC3)C2=O)cc1 ... < 100 nM
Cc1sc(C(=O)CN2C(=O)NC3(CCC(F)(F)CC3)C2=O)c(C)c1-c1cncc(C(N)=O)c1 ... < 500 nM

Ask: Indicate the recorded IC50 value for this compound: `Cc1cc(C(=O)CN2C(=O)NC3(CCC(F)(F)CC3)C2=O)ccc1-c1cccc(C#N)c1`
Result: < 100 nM

Ask: Identify measured IC50 associated with `Cc1cc(C(=O)CN2C(=O)NC3(CCC(F)(F)CC3)C2=O)c(C)n1-c1cncc2ccccc12`
Result: < 100 nM

Ask: Please list IC50 recorded for the compound `Cc1ccncc1-c1ccc(C(=O)CN2C(=O)NC3(CCC(F)(F)CC3)C2=O)cc1`
Result: < 10 nM

Ask: Look up and report measured IC50 for this entry: `O=C(CN1C(=O)NC2(CCC(F)(F)CC2)C1=O)c1ccc(-c2ccnc3ccccc23)nc1`
Result: < 100 nM

Ask: Name the recorded IC50 of the compound listed here: `Cc1cccc(-n2c(C)cc(C(=O)CN3C(=O)NC4(CCC(F)(F)CC4)C3=O)c2C)n1`
Result: < 100 nM

Ask: Specify reported IC50 for the compound shown: `O=C(CN1C(=O)NC2(CCC(F)(F)CC2)C1=O)c1ccc(-c2cccnc2)cc1`
Result: < 100 nM

Ask: Report IC50, nothing else, for this compound: `O=C(CN1C(=O)NC2(CCCCC2)C1=O)c1ccc(Oc2cccnc2)nc1`
Result: < 500 nM

Ask: Note down IC50 recorded for `Cc1cccc(Oc2ccc(C(=O)CN3C(=O)NC4(CCC(F)(F)CC4)C3=O)cc2)n1`
Result: < 500 nM

Ask: Please give the documented IC50 of `O=C(CN1C(=O)NC2(CCC(F)(F)CC2)C1=O)c1ccc(-n2cnc3ncccc32)cc1`
Result: < 100 nM

Ask: For the compound `CN(c1ccccc1)c1ccc(C(=O)CN2C(=O)NC3(CCC(F)(F)CC3)C2=O)cn1` , give its measured IC50 value.
Result: < 100 nM

Ask: Supply recorded IC50 for `O=C(CN1C(=O)NC2(CCC(F)(F)CC2)C1=O)c1ccc(-c2ccnc3ccccc23)cc1` here.
Result: < 100 nM

Ask: State, in one line, measured IC50 of `COc1cccnc1-c1ccc(C(=O)CN2C(=O)NC3(CCC(F)(F)CC3)C2=O)cc1`
Result: < 100 nM

Ask: Indicate its recorded IC50; the compound in question is `Cc1ccnnc1-c1ccc(C(=O)CN2C(=O)NC3(CCC(F)(F)CC3)C2=O)c(F)c1`
Result: < 100 nM

Ask: Please indicate IC50 recorded for `Cc1cccnc1-c1ccc(C(=O)CN2C(=O)NC3(CCC(F)(F)CC3)C2=O)cc1`
Result: < 500 nM

Ask: In one line, give reported IC50 of the entry `O=C(CN1C(=O)NC2(CCC(F)(F)CC2)C1=O)c1ccc(-c2cncc(F)c2)c(Cl)c1` .
Result: < 100 nM

Ask: For the compound `N#Cc1ccncc1-c1ccc(C(=O)CN2C(=O)NC3(CCC(F)(F)CC3)C2=O)cc1` , give its measured IC50 value.
Result: < 100 nM

Ask: Respond only with IC50 recorded for `Cc1c(C(=O)CN2C(=O)NC3(CCC(F)(F)CC3)C2=O)cn(C)c1-c1cccc(C#N)c1`
Result: < 100 nM
